# SYSTEM UNDER TEST: CDK7 (Homo sapiens)
# Sequence (P50613 whole entry): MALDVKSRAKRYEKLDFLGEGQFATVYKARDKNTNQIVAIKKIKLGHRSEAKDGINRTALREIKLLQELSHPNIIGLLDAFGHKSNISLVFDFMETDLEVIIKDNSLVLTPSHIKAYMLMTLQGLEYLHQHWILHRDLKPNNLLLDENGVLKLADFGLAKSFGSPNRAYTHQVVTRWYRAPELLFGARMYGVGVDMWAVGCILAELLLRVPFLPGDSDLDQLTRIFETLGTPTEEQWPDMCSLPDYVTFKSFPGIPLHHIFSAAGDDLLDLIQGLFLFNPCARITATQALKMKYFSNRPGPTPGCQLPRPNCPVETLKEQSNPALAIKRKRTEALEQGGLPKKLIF
# Sequence (P51946 whole entry partner): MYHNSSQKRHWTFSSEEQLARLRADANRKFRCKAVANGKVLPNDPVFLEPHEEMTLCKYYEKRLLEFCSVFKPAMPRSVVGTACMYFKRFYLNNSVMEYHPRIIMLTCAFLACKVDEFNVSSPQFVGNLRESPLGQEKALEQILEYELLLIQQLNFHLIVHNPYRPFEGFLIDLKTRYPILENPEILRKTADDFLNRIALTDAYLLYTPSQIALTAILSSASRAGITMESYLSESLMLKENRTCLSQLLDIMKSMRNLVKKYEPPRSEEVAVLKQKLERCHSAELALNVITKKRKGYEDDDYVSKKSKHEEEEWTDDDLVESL
# Sequence (P51948 whole entry partner): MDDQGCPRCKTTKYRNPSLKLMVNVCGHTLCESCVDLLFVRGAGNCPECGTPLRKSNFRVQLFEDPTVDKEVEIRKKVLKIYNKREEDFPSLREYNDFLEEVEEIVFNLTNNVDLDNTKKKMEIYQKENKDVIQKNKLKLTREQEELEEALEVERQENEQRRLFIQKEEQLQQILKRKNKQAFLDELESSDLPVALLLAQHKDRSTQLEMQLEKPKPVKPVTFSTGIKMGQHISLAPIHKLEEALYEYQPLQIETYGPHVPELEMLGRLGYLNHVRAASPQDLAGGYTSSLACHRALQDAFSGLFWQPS
pIC50: −log10 of the molar value.
MEASURED PARAMETER: pIC50

Previously resolved entries follow.
>>> df
                                   compound  measured
0  CC1(C)Cc2c(-c3cc(NC(=O)Cc4cccc(C(N)=O)c4)ncc3Cl)cnn2C1 [Compound 1]      7.02
1  CNC(=O)c1cccc(CC(=O)Nc2cc(-c3cnn4c3CC(C)(C)C4)c(Cl)cn2)c1 [Compound 3]      6.99
2  C=CC(=O)NCc1ccc(-c2ccc([C@H](C)C(=O)Nc3cc(-c4cnn5c4CC(C)(C)C5)c(Cl)cn3)cn2)cn1 [Compound 20-1]      7.60
3  CC1(C)Cc2c(-c3cc(NC(=O)Cc4cccc(C#N)n4)ncc3Cl)cnn2C1 [Compound 7]      6.93

A: CC(=O)Nc1cccc(CC(=O)Nc2cc(-c3cnn4c3CC(C)(C)C4)c(Cl)cn2)c1 [Compound 8]
B: CC1(C)Cc2c(-c3cc(NC(=O)Cc4cccnc4)ncc3Cl)cnn2C1 [Compound 6]
C: C[C@@H](C(=O)Nc1cc(-c2cnn3c2CC(C)(C)C3)c(Cl)cn1)c1cccc(C(N)=O)c1 [Compound 2-2]
Sort the 3 compounds by pIC50; largest first, smallest last. Please list each label once, in the requested order.
C, A, B
(C: 7.72, A: 6.94, B: 6.71)
